The reported numbers originate from paper PMC5666424.

# target: CLK1 (Mus musculus)
# Sequence (P22518 whole entry): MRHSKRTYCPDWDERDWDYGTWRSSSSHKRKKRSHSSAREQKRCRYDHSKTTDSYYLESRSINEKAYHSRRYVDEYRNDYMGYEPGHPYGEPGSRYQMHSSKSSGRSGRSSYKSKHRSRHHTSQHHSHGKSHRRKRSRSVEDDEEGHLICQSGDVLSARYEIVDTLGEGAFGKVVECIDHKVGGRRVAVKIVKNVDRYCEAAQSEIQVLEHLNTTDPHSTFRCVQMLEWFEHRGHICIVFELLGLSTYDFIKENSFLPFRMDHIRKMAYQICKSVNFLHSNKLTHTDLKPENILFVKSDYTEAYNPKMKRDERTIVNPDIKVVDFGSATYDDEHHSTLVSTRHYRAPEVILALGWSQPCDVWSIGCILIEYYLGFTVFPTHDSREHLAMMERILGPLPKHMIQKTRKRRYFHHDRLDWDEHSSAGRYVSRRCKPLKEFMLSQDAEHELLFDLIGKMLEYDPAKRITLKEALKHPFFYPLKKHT
# experimental details: Protein kinase assay
# protocol conditions: read-out: IC50 CLK1; 15 μmol/L ATP
pIC50: −log10 of the molar value.
readout label: pIC50

Example entries begin here.
compound: COc1cc(C=C2N=C(N)NC2=O)ccc1F
pIC50: 5.66
--
compound: O=C1NC(Nc2ccccc2)=N/C1=C\c1ccc2c(c1)OCO2 [Leucettine L41, reference compound]
pIC50: 7.41

a = NC1=NC(=Cc2cccc(Br)c2)C(=O)N1
b = NC1=NC(=Cc2cc(Br)cs2)C(=O)N1
stdin: Which of the two gives a bigger number for pIC50: a or b ? Reply briefly: the label of your chosen item.
stdout: a
(a: 5.66, b: 5.38)
